These measurements were taken from patent US9499553B2.

- Experimental system: human NaPi-IIb (Homo sapiens, UniProt O95436)
- Construct: expressed in transfected cells
- Assay details: Inhibitory effect on 33PO4 uptake into human NaPi-IIb-expressing CHO cells
- Format: cell-based
- Test parameters: read-out: IC50 against 33PO4 uptake into human NaPi-IIb-expressing cells
Reported metric: IC50 (µM)

CN1N(Cc2ccc(OCCN3CCN(CCOCCO)CC3)c(F)c2F)C(=O)C(C(=O)Nc2ccc(C(F)(F)F)cc2-c2cc(C(F)(F)F)ncn2)=C(O)C12CCC2 [Example 361] :: 20.2

P. CN1N(Cc2ccc(OCCCOC[C@H](O)CO)c(F)c2F)C(=O)C(C(=O)Nc2ccc(C(F)(F)F)cc2-c2ccc(C(F)(F)F)nc2)=C(O)C12CCCC2 [Example 386]
Q. COCCN(C)CCN(C)c1ccc(CN2C(=O)C(C(=O)Nc3ccc(C(F)(F)F)cc3-c3cc(C(F)(F)F)ncn3)=C(O)C3(CCCC3)N2C)c(F)c1F [Example 442]
[Q] When the recorded IC50 values are compared, which is smaller: that of P or that of Q ? State your choice using its label.
[A] Q
(Q: 6.3 µM, P: 18.9 µM)

* * *

- Experimental system: human NaPi-IIb (Homo sapiens, UniProt O95436)
- Construct: expressed in transfected cells
- Sequence (O95436 1-690): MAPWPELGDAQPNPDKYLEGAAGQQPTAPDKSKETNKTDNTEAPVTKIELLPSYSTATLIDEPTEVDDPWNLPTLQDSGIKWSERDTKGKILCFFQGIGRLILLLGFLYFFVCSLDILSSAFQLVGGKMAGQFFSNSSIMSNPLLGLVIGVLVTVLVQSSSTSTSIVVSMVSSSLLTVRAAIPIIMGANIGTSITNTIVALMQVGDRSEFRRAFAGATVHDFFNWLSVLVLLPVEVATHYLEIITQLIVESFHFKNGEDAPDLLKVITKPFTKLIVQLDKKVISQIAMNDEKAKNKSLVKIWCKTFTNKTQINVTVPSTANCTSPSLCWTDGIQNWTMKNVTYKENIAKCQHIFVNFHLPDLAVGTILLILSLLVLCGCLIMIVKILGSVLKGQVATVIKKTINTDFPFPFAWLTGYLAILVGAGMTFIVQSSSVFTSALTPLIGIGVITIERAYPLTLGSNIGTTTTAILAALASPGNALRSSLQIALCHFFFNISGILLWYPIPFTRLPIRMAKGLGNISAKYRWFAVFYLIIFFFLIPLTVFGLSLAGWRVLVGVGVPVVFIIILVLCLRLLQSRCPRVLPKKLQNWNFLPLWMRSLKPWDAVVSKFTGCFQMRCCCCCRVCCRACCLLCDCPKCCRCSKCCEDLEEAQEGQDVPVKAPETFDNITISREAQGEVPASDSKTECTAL
- Assay details: Inhibitory effect on 33PO4 uptake into human NaPi-IIb-expressing CHO cells
- Format: cell-based
- Test parameters: read-out: IC50
pIC50: −log10 of the molar value.
Reported metric: pIC50

A selection of reference data follows.
CSc1ccc(-c2nc(C(F)(F)F)ccc2NC(=O)C2=C(O)[C@@]3(C)CCCN3N(Cc3cccc(F)c3F)C2=O)cn1 [Example 105] :: 5.20
C[C@]12CCCN1N(Cc1cc(Cl)ccc1F)C(=O)C(C(=O)Nc1ccc(C(F)(F)F)cc1-c1cc(C(F)(F)F)ncn1)=C2O [Example 211] :: 5.24
C[C@]12CCCN1N(Cc1cc(F)cc(F)c1)C(=O)C(C(=O)Nc1cc(F)c(Br)c(F)c1)=C2O [Example 190] :: 5.29

a. COc1cc(-c2cc(C(F)(F)F)ccc2NC(=O)C2=C(O)[C@@]3(C)CCCN3N(Cc3cccc(F)c3F)C2=O)cnc1C#N [Example 114]
b. Cc1c(C#N)ncnc1-c1cc(Cl)ccc1NC(=O)C1=C(O)[C@H](C(C)(C)C)N(C)N(Cc2ccc(OCCN3CCOCC3)c(F)c2F)C1=O [Example 274]
c. C[C@]12CCCN1N(Cc1c(F)cccc1Cl)C(=O)C(C(=O)Nc1ccc(C(F)(F)F)cc1-c1cc(C(F)(F)F)ncn1)=C2O [Example 210]
[Q] Ordering criterion: pIC50; begin with the maximum. Hello, could you send the labels back in the order asked? Thank you.
[A] c, a, b
(c: 5.77, a: 5.10, b: 4.77)
